Values from patent US10125184B2

# Measurement Protocol: physchem
Peptide text beside a SMILES is read from it.
Quantity: solubility

Fill in the blank: the reported solubility of CC(C)C[C@H](NC(=O)[C@H](CC(C)C)NC(=O)[C@H](CCCNC(=N)N)NC(=O)[C@H](CCCCN)NC(=O)[C@H](CCCNC(=N)N)NC(=O)[C@H](CC(C)C)NC(=O)[C@H](CCCCN)NC(=O)[C@H](CCCNC(=N)N)NC(=O)[C@H](CC(C)C)NC(=O)[C@@H](N)CS)C(=O)N[C@@H](CCCNC(=N)N)C(=O)N[C@@H](CS)C(=O)O [hEP-12, CLRKLRKRLLRC] (H-CLRKLRKRLLRC-OH; N-terminus and C-terminus assumed) is ____. < 0.22 mg/mL
